Each recorded value in this set is attributed to ChEMBL document CHEMBL1201862.

System: K562
Assay: NCI tumour cell line growth inhibition, 48 h
Active and inactive are the calls of the source. Cut-off read from the data, not from the text of the source: active = GI50 up to about 1.1 µM and inactive = higher.
assay_metric: GI50

INSERT INTO assay_data (molecule, result) VALUES
  ('COC(=O)C1CCC(=O)N1C(c1ccc(OC)cc1)c1ccc(OC)cc1 (stereo not given)', '> 100 µM (inactive)'),
  ('Cn1c(=O)c(C(=O)NC(=O)OCc2ccccc2)cn(CCSCCOC(=O)NCCCCCCNC(=O)OCCSCCn2cc(C(=O)NC(=O)OCc3ccccc3)c(=O)n(C)c2=O)c1=O', '> 100 µM (inactive)'),
  ('COc1ccc(Cl)cc1NC(=O)c1cccc([N+](=O)[O-])c1O', '32.1 µM (inactive)'),
  ('CC1=CC(=O)/C(=C/N2CCNC2=S)C(=O)O1', '> 100 µM (inactive)'),
  ('CSc1nc(Nc2ccccc2Cl)c2c(N)nn(C)c2n1', '> 100 µM (inactive)');
